Data origin: patent US20260337162A1

MEASURED_ON: 5-HT2A receptor (Homo sapiens, UniProt P28223)
Construct: expressed in transfected cells
Sequence (P28223 whole entry): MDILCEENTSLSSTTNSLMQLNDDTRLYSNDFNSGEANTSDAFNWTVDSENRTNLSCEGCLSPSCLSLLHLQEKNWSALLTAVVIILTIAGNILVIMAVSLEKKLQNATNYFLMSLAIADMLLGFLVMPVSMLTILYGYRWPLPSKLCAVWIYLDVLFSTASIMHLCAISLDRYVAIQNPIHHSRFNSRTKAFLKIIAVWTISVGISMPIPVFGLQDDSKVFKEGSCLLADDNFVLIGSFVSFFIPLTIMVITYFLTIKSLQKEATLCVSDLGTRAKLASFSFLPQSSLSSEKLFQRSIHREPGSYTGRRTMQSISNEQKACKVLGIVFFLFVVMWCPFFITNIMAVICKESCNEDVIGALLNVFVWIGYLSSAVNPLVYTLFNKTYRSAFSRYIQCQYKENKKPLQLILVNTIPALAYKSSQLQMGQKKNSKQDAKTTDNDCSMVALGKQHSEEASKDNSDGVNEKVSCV
TEST_METHOD_NOTES: 5-HT2A receptor functional screening assay (efficacy relative to maximal 5-HT response)
Assay type: cell-based
CONDITION_INFO: 50 μM
# activation at 50 µM values compiled below
Could you give me the number in %? Just the number is fine.

CN(C)CCc1c[nH]c2ccc(SC(F)(F)F)cc12 [Compound I-3]
43.9

For CN(CCc1c[nH]c2ccccc12)CCC(F)(F)F [II-6] , what is its reported activation at 50 µM?
-3.1
